# experiment.description: amyloid nucleation score (Sup35N fusion, yeast selection) (log enrichment); library NNK3; higher = more nucleation; inactive = no reads after selection;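 note: zero at mode of non-aggregating sequences after 7 days selection at 30°C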
readout: amyloid nucleation score

Examples from the recorded data:
INSERT INTO measurements (substance, test_value) VALUES
  ('ASAYGSSLYSRFTVEYNSII', 0.223),
  ('RWSVCSCYSWERSGSRSQ', 'inactive'),
  ('SLWMQGWYSSGLLPFGSIAE', 'inactive'),
  ('RSYLSEHSNYGAKSSYYGIF', 'inactive'),
  ('DHCRNKQCVPTWDAYLEQ', -0.339),
  ('SLATSYVNFILCRLLKFDHT', 'inactive');

Problem: What value of amyloid nucleation score has been reported for the following substance? SCNRSSSV
Result: inactive

Problem: Which measured amyloid nucleation score value corresponds to FKWQEW ?
Result: -0.943

Problem: Which amyloid nucleation score is listed for VDVDCYLLSKNM ?
Result: inactive

---

# experiment.description: amyloid nucleation score (Sup35N fusion, yeast selection) (log enrichment); library NNK2; higher = more nucleation; inactive = no reads after selection
So basically: amyloid nucleation score at 0.8 or higher? That is yes. Lower than 0.8? That is no.

Solved cases below.
INSERT INTO measurements (substance, category) VALUES
  ('SLESSLAYVGSLGIAGGSAQ', 'yes'),
  ('SSTWLGLS', 'no'),
  ('CYRPDRPIITIDLVCVRFS', 'yes');

Problem: Does the reported amyloid nucleation score for PRGLATRPLFNRVYLHWYLL fall at or above the 0.8 mark?
Result: no

Problem: Decide: is the reported value of amyloid nucleation score for SCYNFVWYTCGLYMWLNCLL equal to or greater than 0.8?
Result: no

Problem: Hello, I need to know if YHVVVMRSVYTVLTYNRVGA has measured amyloid nucleation score not below 0.8. Thanks!
Result: no

Problem: Dear colleague, could you confirm whether YILRMLLRVLSVCVCSLQRS has amyloid nucleation score at or above 0.8?
Result: no

Problem: Check the entry AGDTLWNGGMVEWFVWRLPG : does amyloid nucleation score equal or exceed 0.8?
Result: no

Problem: Does amyloid nucleation score meet or surpass 0.8 for GNNNMRPIALCTLSMGGRTF ?
Result: no

Problem: Does the reported amyloid nucleation score for GRWVST fall at or above the 0.8 mark?
Result: yes

Problem: Is amyloid nucleation score at least 0.8? Consider VMWDNVLSVLLVSGRVAFPM
Result: yes

Problem: Given MFVWVQSRIGKGFGMGFRRW , state whether its amyloid nucleation score is at least 0.8.
Result: no

Problem: Determine whether this substance has amyloid nucleation score no lower than 0.8: RECFGGVQYRVRFSKFPYES
Result: no

Problem: Please tell me: is the substance RMGCLFCRESNWILSFYSVS at or over 0.8 in terms of amyloid nucleation score?
Result: yes

---

# experiment.description: amyloid nucleation score (Sup35N fusion, yeast selection) (log enrichment); library NNK1; higher = more nucleation; inactive = no reads after selection
Given measured amyloid nucleation score, output yes if it is greater than or equal to 0.7 and no if not.

INSERT INTO measurements (sequence_entry, category) VALUES
  ('SPSYQRCLQMLEKIWKDLNH', 'no'),
  ('HMLIFYSGLCKPSFVYYLLY', 'yes'),
  ('GAFAFQKL', 'no'),
  ('MGTRILSRTFVVYTTPGYCW', 'no');

Problem: # bool: amyloid nucleation score of VDVRNWCIWDWKGLSAGVGG >= 0.7
Result: no

Problem: Form field: amyloid nucleation score at least 0.7? Entry: KCTLYLQFNIEHGCAIFEDK
Result: yes

Problem: Is it the case that RSPHVAGYNMKAGSDRSNIT has amyloid nucleation score reaching or exceeding 0.7?
Result: no

Problem: For this sequence, is measured amyloid nucleation score 0.7 or higher? VCKGSHWFIYLRNGFKSPSV
Result: yes

Problem: Evaluate NWMCKHSVGP : amyloid nucleation score at minimum 0.7?
Result: no

Problem: Tell me whether amyloid nucleation score is at least 0.7 here: VSYQGTSAFDGSRKVVGPTL
Result: no

Problem: Can YGCVCGSDNTHWNYMLVNNH be said to have amyloid nucleation score at or above 0.7?
Result: yes

Problem: Hi team, for GSRFPFLVVDMCSSELVKR , is the recorded amyloid nucleation score at or above 0.7?
Result: no

Problem: Does YLMFFVYCVRLRYLSWALSQ have a reported amyloid nucleation score of at least 0.7?
Result: no

Problem: Check if amyloid nucleation score >= 0.7 (inclusive). Item: LWPKVLMVFTSM
Result: yes

---

# experiment.description: amyloid nucleation score (Sup35N fusion, yeast selection) (log enrichment); library NNK3; higher = more nucleation; inactive = no reads after selection
readout: amyloid nucleation score

Consider the reported amyloid nucleation score for these substances:
INSERT INTO assay_data (substance, readout, test_value) VALUES
  ('GKSLMK', 'amyloid nucleation score', 'inactive'),
  ('SHWYIYSYSVDPCAGHAAVW', 'amyloid nucleation score', 'inactive'),
  ('EFWLISFQSQLSFYCDFRYD', 'amyloid nucleation score', 'inactive'),
  ('RRVNFVNYSLWV', 'amyloid nucleation score', 1.6),
  ('RTRFQITCQEETTCPRFS', 'amyloid nucleation score', 0.92),
  ('SFFTKADAGMPDLRSFMESC', 'amyloid nucleation score', 'inactive'),
  ('VNLEYYV', 'amyloid nucleation score', 'inactive'),
  ('LLGMLIRGDAF', 'amyloid nucleation score', 'inactive');

Problem: Endpoint output: amyloid nucleation score of RRSSRSRRHAKRRRAIVRCG . Value?
Result: inactive

Problem: # input substance: GSNYSWSLLL ; wanted: its amyloid nucleation score
Result: inactive

Problem: Given the entry FGTLSQVHIH , report its measured amyloid nucleation score.
Result: inactive

Problem: What measured amyloid nucleation score goes with YDSLFCLSSHLGWCNRALPE ?
Result: 0.977

Problem: amyloid nucleation score for CRKTESAMRWK ?
Result: inactive

Problem: Find the recorded amyloid nucleation score belonging to SIIDKE and report it.
Result: -0.605

Problem: For VDVLER , what is its reported amyloid nucleation score?
Result: inactive

Problem: Which amyloid nucleation score is reported for this substance? NQNIMWIAKYIF
Result: 0.845

Problem: GET /values?readout=amyloid nucleation score&item= TGWSWISLYWLCSNMVIVNR
Result: inactive

Problem: Item NRATVYMTQAKGCCSALFQV has what recorded amyloid nucleation score?
Result: 0.315

Problem: Param item = LEYYAS ; retrieve measured amyloid nucleation score.
Result: inactive

---

# experiment.description: amyloid nucleation score (Sup35N fusion, yeast selection) (log enrichment); library NNK3; higher = more nucleation; inactive = no reads after selection
readout: amyloid nucleation score

Known amyloid nucleation score results, listed for orientation:
INSERT INTO assay_data (substance, readout, test_value) VALUES
  ('KDYLWNILRIT', 'amyloid nucleation score', 'inactive'),
  ('RGKLFLSLLIVYFTLFLSVM', 'amyloid nucleation score', 'inactive'),
  ('RMNYNAYRIFLTPISDWCNL', 'amyloid nucleation score', 'inactive'),
  ('CISTVIEKMLVIYEKNRFQH', 'amyloid nucleation score', 0.529),
  ('TSTSIVSYGTWFSGFVLNVS', 'amyloid nucleation score', 2.29),
  ('KYWSLGNGCTTKRWSGGFVS', 'amyloid nucleation score', 'inactive');

Problem: // query amyloid nucleation score value for entry RHCGRALCDWLVIRWGSGYT
Result: inactive

Problem: For VSLKVIDKNFNFHVMYGCID , what is its reported amyloid nucleation score?
Result: inactive

Problem: Given VIMSRCPVHIDMVPRDAQPL , state its recorded amyloid nucleation score.
Result: inactive

Problem: Given the substance DVLRVFLFSSFIILCVGCTY , what is its reported amyloid nucleation score?
Result: inactive

Problem: Please give the measured amyloid nucleation score for this substance: ICTECAYFSTWRHSMCITWG
Result: inactive

Problem: Looking for the measured amyloid nucleation score of VSYNFGYAYECLGYVRFV , can you help?
Result: 0.572

Problem: If you can, please state the reported amyloid nucleation score value of KFNSRNRS .
Result: inactive

Problem: Query: amyloid nucleation score; subject: GCFYCQALNLHPLTSVHAD
Result: inactive

Problem: # query: amyloid nucleation score of entry YFGYRLLAAERSSERVICFK
Result: -0.352

Problem: State the recorded amyloid nucleation score for this entry: EVKDAWIMSYSLNYWQRLYM
Result: inactive

---

Measured amyloid nucleation score accompanies every entry in the list below.
# experiment.description: amyloid nucleation score (Sup35N fusion, yeast selection) (log enrichment); library NNK2; higher = more nucleation; inactive = no reads after selection

Worked cases, amyloid nucleation score given:
INSERT INTO results (substance, test_value) VALUES
  ('LNLKRLLLQLFSMPMPVFHV', -0.023),
  ('NHTLVLLIRNSNVHVSTAQS', 10.8),
  ('VWDLMLKKAFTNSSNCYSVA', 1.19),
  ('ETVGYN', 0.284),
  ('CLLVEHNMLWWWSCCIGCWK', 0.635);

Problem: // amyloid nucleation score lookup, key: GMYYPREIEFLAFWSTTRGR
Result: -0.956

Problem: amyloid nucleation score for DSVFNMTIADECFG ?
Result: -1.06

Problem: Using the record for MVCRFGILSYVMWRF , report its amyloid nucleation score.
Result: 0.83

Problem: Using the record for SYGMRTEWTVCIAIRLHASN , report its amyloid nucleation score.
Result: 1.31
